system: Calf thymus DNA; test: Binding affinity to calf thymus DNA assessed as hypochromic effect by UV-vis spectroscopy; assay type: nucleic-acid assay; design: concentration or dose not given beside the values; details: Bos taurus
hey, just use Fulfilled if measured Activity is less than 20%, otherwise Not fulfilled

{"structure notation": "COc1cc(-n2nnc3c(sc4ccccc43)c2=O)cc(OC)c1OC", "discrete label": "Not fulfilled"}
{"structure notation": "O=c1c2sc3ccccc3c2nnn1-c1ccccc1", "discrete label": "Not fulfilled"}
{"structure notation": "CCOC(=O)c1sc2ccccc2c1/N=N/Nc1ccccc1", "discrete label": "Fulfilled"}
{"structure notation": "CCOC(=O)c1sc2ccccc2c1/N=N/Nc1cc(OC)c(OC)c(OC)c1", "discrete label": "Fulfilled"}
{"structure notation": "COc1ccc(-n2nnc3c(sc4ccccc43)c2=O)cc1", "discrete label": "Not fulfilled"}
{"structure notation": "Cc1ccc(-n2nnc3c(sc4ccccc43)c2=O)cc1", "discrete label": "Not fulfilled"}
